# Tested target: Concanavalin-A (Canavalia ensiformis)
# Protocol text: compounds binding concanavalin A lectin – biochemical, small-molecule microarray, Alexa647 label, 635 nm, artefact control for SMM control protein annotation, primary screen (AID 1127);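 also: z combines 667 nm emission intensity with signal-to-noise across three replicate slides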
# Settings: ConA-A647 binding fluorescence, higher = more signal
Outcome label depends on composite z-score relative to 0.8: at/above gives 1.0, below gives 0.0.

{"Compound": "COCCOC(=O)N1C(=O)[C@@]2(c3cc(C#CC4(O)CCCCCC4)ccc31)[C@H](C(=O)N1CCN(c3ncccn3)CC1)[C@H]1C(=O)O[C@H](c3ccccc3)[C@H](c3ccccc3)N1[C@@H]2c1ccc(O)cc1", "Qualitative label": 1.0}

Confirm if composite z-score reported for the compound `COCCOC(=O)N1C(=O)[C@@]2(c3cc(C#Cc4ccc(OC)cc4)ccc31)[C@H](C(=O)N1CCc3cc(OC)c(OC)cc3C1)[C@H]1C(=O)O[C@H](c3ccccc3)[C@H](c3ccccc3)N1[C@@H]2c1ccc(O)cc1` is 0.8 or above. 1.0

Confirm if composite z-score reported for the compound `Cc1ccc(S[C@]2(C(=O)NCC(C)C)CC(=O)N(C3CCCCC3)[C@@H]2c2ccc(CO)cc2I)cc1` is 0.8 or above. 1.0

Confirm if composite z-score reported for the compound `CN(C)C(=O)[C@@]1(CCS(=O)(=O)c2ccccc2)N=C(c2ccc(OCCCO)cc2)O[C@H]1c1ccccc1CN=[N+]=[N-]` is 0.8 or above. 1.0

Confirm if composite z-score reported for the compound `[N-]=[N+]=Nc1ccccc1[C@@H]1OC(c2ccc(OCCCO)cc2)=N[C@]1(CCS(=O)(=O)c1ccccc1)C(=O)NCc1ccccc1` is 0.8 or above. 1.0

Confirm if composite z-score reported for the compound `COC(=O)[C@@]1(Cc2ccccc2)[C@H]2c3cc(C(=O)N4CCCC4)n(CCO)c3C[C@H]2CN1C(=O)c1ccccc1` is 0.8 or above. 1.0

----------
# Protocol text: viability profiling in RPMI8226 myeloma cells – cell-based, resazurin fluorescence, basal, 24 h, PK04 Diversity Set, profiling panel (AID 1180);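 also: RPMI8826 multiple myeloma cell line at 5000 cells per well; test concentration not given here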
# Settings: higher = more signal
z-score: recorded values
Response field accepts a number only; no unit should be typed.

{"Compound": "O=C(CS)NCCCCCNC(=O)[C@@H]1C[C@@H]2C(=O)N3CCC[C@H]3C(=O)N2[C@@H]1c1ccc(O)cc1", "z-score": -0.0255}
{"Compound": "COCCOC(=O)N1C(=O)[C@@]2(c3cc(C#CCNC(N)=O)ccc31)[C@H](c1ccc(OCCO)cc1)N1[C@H](c3ccccc3)[C@H](c3ccccc3)OC(=O)[C@H]1[C@@H]2C(=O)N1CCN(c2ncccn2)CC1", "z-score": 0.0246}
{"Compound": "C[C@H]1NC(=O)C([C@@H](C)OCc2ccccc2)NC(=O)[C@@]23C(=O)N[C@@H](Cc4ccccc4)C2[C@H](C)[C@@]2(C)O[C@H]2C3/C=C/CC/C=C/CNC1=O (some centres undefined)", "z-score": 0.189}

# evaluate next
Report z-score for `COc1cc2c(cc1OC)CN(C(=O)[C@@H]1[C@H]3C(=O)O[C@H](c4ccccc4)[C@H](c4ccccc4)N3[C@H](c3ccc(O)cc3)[C@@]13C(=O)Nc1ccc(C#CCNC(N)=O)cc13)CC2` please. 0.431

----------
# Protocol text: compounds binding Alexa647 anti-His antibody – biochemical, small-molecule microarray, 635 nm fluorescence, artefact control for SMM control protein annotation, primary screen (AID 1128);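 also: score merges feature fluorescence with signal-to-noise for each printed compound spot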
# Settings: higher = more signal
Measurement type: composite z-score
Response field accepts a number only; no unit should be typed.

See these solved cases before continuing.
{"Molecule": "CCOC(=O)C1=CC[C@@H](c2ccccc2)N(S(=O)(=O)c2ccc(C)cc2)[C@H]1C=C(C)C", "Test value": 0.875}
{"Molecule": "COCCCNC(=O)[C@]1(CCS(=O)(=O)c2ccccc2)N=C(c2ccc(OCCCO)cc2)O[C@@H]1c1ccccc1", "Test value": 1.85}
{"Molecule": "CN(C)C(=O)[C@@]1(Cc2ccccc2N=[N+]=[N-])N=C(c2ccc(OCCCO)cc2)O[C@H]1c1ccccc1N=[N+]=[N-]", "Test value": 1.85}
{"Molecule": "C=CCC(OC(C)=O)[C@@H]1[C@@H](N(Cc2ccc(-c3cccc(C(F)(F)F)c3)o2)C(=O)c2cccc3ccccc23)c2cc(OCCCO)ccc2N1C(=O)c1ccc(-c2ccccc2)cc1 (stereo partly specified)", "Test value": 0.955}
{"Molecule": "COC(=O)[C@@]1(Cc2ccccc2N=[N+]=[N-])N=C(c2ccc(OCCCO)cc2)O[C@H]1c1ccccc1", "Test value": 2.23}

# evaluate next
Report composite z-score for `COc1ccc(C#Cc2ccc3c(c2)[C@]2(C(=O)N3)[C@H](C(N)=O)[C@H]3C(=O)O[C@H](c4ccccc4)[C@H](c4ccccc4)N3[C@@H]2c2ccc(O)cc2)cc1` please. 1.69

----------
# Protocol text: JC-1 mitochondrial signal, unstimulated HepG2 cells – cell-based, JC-1 fluorescence, 24 h, 100 nL compound, profiling panel (AID 1167); also: test concentration not given here
# Settings: HepG2 mitochondrial potential, higher = more signal
Classes based on z-score: lowest (below -1), middle (-1 to below 0.8), highest (0.8 or more)

See these solved cases before continuing.
{"Compound": "C[C@]12C(=O)N(CCCO)[C@@H]3C(=O)N(c4ccc(Cl)cc4)CC=CC31O[C@@H]1/C=C\\CCCOC(=O)C12 (stereo partly drawn)", "Qualitative label": "middle"}
{"Compound": "COC(=O)[C@@]1(Cc2ccccc2)[C@H]2c3cc(C(=O)N4CCCC4)n(CCO)c3C[C@H]2CN1C(=O)c1ccccc1", "Qualitative label": "highest"}
{"Compound": "CCCCC(=C=CC[C@H](O)c1cccc(OCCO)c1)C[C@H](O)COCc1ccccc1", "Qualitative label": "middle"}
{"Compound": "CN1C(=O)C2C=CC(C(O)c3cccc4ccccc34)N(NC(=O)OC(C)(C)C)C2C1=O (stereo not drawn)", "Qualitative label": "lowest"}
{"Compound": "COc1cc(NN2C(C(O)c3ccc(I)cc3)C=CC3C(=O)N(C)C(=O)C32)cc(OC)c1OC (stereo not drawn)", "Qualitative label": "middle"}
{"Compound": "[N-]=[N+]=NCc1ccccc1C[C@]1(C(=O)NCCN2CCOCC2)N=C(c2ccc(OCCCO)cc2)O[C@H]1c1ccccc1", "Qualitative label": "highest"}
{"Compound": "CC(C)CCC[C@@H](C)[C@H]1CC[C@@]2(C)C3=C(CC[C@]12C)[C@@]1(C)CC[C@H](OC(=O)C(C)(C)C)C(C)(C)C1CC3 (stereo partly drawn)", "Qualitative label": "highest"}
{"Compound": "NC(=O)NCC#Cc1ccc2c(c1)[C@]1(C(=O)N2)[C@H](c2ccc(OCCO)cc2)N2[C@H](c3ccccc3)[C@H](c3ccccc3)OC(=O)[C@H]2[C@@H]1C(=O)N1CCN(c2ncccn2)CC1", "Qualitative label": "lowest"}
{"Compound": "COC(=O)c1ccc(OC)c(/C=C\\CC(CCc2ccccc2)OC(C)=O)c1 (stereo not drawn)", "Qualitative label": "lowest"}
{"Compound": "COC(=O)[C@]1(Cc2ccccc2CN=[N+]=[N-])N=C(c2ccc(OCCCO)cc2)O[C@@H]1c1ccccc1", "Qualitative label": "lowest"}

Which class holds `CCOC(=O)C[C@H]1[C@H](OC(=O)c2ccccc2-c2ccccc2)[C@@H](NC(=O)c2ccccc2)c2cc(OCCCO)ccc2N1C(=O)Cc1ccc(OC)cc1` ? highest

Which class holds `CCCCCCC#C[Si](O[C@H](c1ccccc1)c1cn(Cc2cccc(Cl)c2)nn1)(C(C)C)C(C)C` ? highest

Which class holds `COc1ccc([Si](C)(C)[C@H]2[C@H](CCn3cc(CCO)nn3)O[C@@]3(C(=O)N(Cc4cccc(N5C(=O)c6cccc7cccc5c67)c4)c4ccccc43)[C@@H]2C)cc1` ? highest

Which class holds `CCC[C@@H]1C[C@@]1(CCC)[C@@H](NC(=O)c1cccs1)c1ccc(Cl)cc1` ? middle

Which class holds `CN(C)CCCC[C@@H]1NC(=O)[C@H]2C[C@@H](C(=O)NCCCCCCNC(=O)CS)[C@@H](c3ccc(O)cc3)N2C1=O` ? lowest

Which class holds `COC(=O)[C@@]1(Cc2ccccc2)[C@H]2c3cc(C(=O)N4CCCC4)n(Cc4ccccc4)c3C[C@H]2CN1C(=O)c1ccccc1` ? middle

Which class holds `O=C1O[C@H](c2ccccc2)[C@H](c2ccccc2)N2[C@H]1[C@@H](C(=O)NC[C@H](O)c1ccccc1)[C@]1(C(=O)Nc3ccccc31)[C@H]2c1ccccc1OCCO` ? lowest

Which class holds `CCCN1C(=O)[C@@H]2Cc3c([nH]c4ccccc34)[C@@H](c3cccc(O)c3)N2C1=O` ? lowest

----------
# Tested on: Lefty1
# Protocol text: Lefty1 protein binding to printed compounds – biochemical, small-molecule microarray, 635/667 nm fluorescence, primary screen (AID 1139)
# Settings: fluorescence 635/667, higher = more signal
composite z-score: recorded values
Response field accepts a number only; no unit should be typed.

See these solved cases before continuing.
{"Smiles string": "COC(=O)[C@@]1(Cc2ccccc2)[C@H]2c3cc(C(=O)N(C)C)n(Cc4ccccn4)c3C[C@H]2CN1C(=O)c1ccccc1", "composite z-score": -0.225}
{"Smiles string": "CC(C)CN1C(=O)[C@@]2(Cc3ccccc31)c1ccccc1C(=O)N(Cc1ccccc1)[C@H]2c1ccc(CO)cc1", "composite z-score": -0.78}

Report composite z-score for `[N-]=[N+]=NCc1ccccc1[C@H]1OC(c2ccc(OCCCO)cc2)=N[C@@]1(Cc1ccccc1N=[N+]=[N-])C(=O)NCCN1CCOCC1` please. 0.631

Report composite z-score for `O=C1N(Cc2ccccc2)c2ccccc2[C@H]2OC(c3ccc(OCCCO)cc3)=N[C@@]12CCS(=O)(=O)c1ccccc1` please. 0.689

Report composite z-score for `[N-]=[N+]=Nc1ccccc1[C@@H]1OC(c2ccc(OCCCO)cc2)=N[C@]1(CCS(=O)(=O)c1ccccc1)C(=O)NCc1ccccc1` please. -0.141

Report composite z-score for `Cc1ccc(S[C@]2(C(=O)NCC(C)C)CC(=O)N(C3CCCCC3)[C@@H]2c2ccc(CO)cc2I)cc1` please. 0.0839

Report composite z-score for `[N-]=[N+]=NCc1ccccc1[C@H]1OC(c2ccc(OCCCO)cc2)=N[C@@]1(Cc1ccccc1)C(N)=O` please. -0.572
